This collection of values is drawn from ChEMBL document CHEMBL6103636.

Test system: KYSE-520 cell line
Test: cells
Conditions: Homo sapiens, KYSE-520, 72 h
Description: Antiproliferative activity against human KYSE520 cells measured after 72 hrs by Cell Titer-Glo assay
Measured IC50 values are reported for all entries that follow.

Compound | Inequality operator | IC50 (nM)
CCC1C(O)=C(C(=O)Nc2cccc(Sc3ccc4nc(N5CCC(C)(N)CC5)sc4n3)c2Cl)C(=O)N1C (centres undefined) | > | 10000
C[C@@H]1OCC2(CCN(c3cnc(Sc4ccnc(N)c4Cl)c(N)n3)CC2)[C@@H]1N | = | 241
NC1COCC12CCN(c1nc3ccc(Sc4cccc(NC(=O)c5c(O)nc6ccccn6c5=O)c4Cl)nc3s1)CC2 (centres undefined) | = | 1200
NC1COCC12CCN(c1nc3ccc(Sc4cccc(NC(=O)C5=C(O)CN(c6ccccc6)C5=O)c4Cl)nc3s1)CC2 (centres undefined) | = | 9250
